Where do the numbers come from? From the Immune Epitope Database (IEDB).

# Tested on: HLA-A*26:02
# Experiment summary: IEDB peptide-MHC binding, purified MHC/competitive/fluorescence; filed as Kd, often an IC50 or EC50 that approximates it; bounds were set here for any values at or beyond the usual limits of such assays
# Experimental parameters: source organism: Variola virus
Measured property: pKd
The scale used: pKd is minus the common logarithm of the concentration in molar units.

What pKd value was documented for this sequence, EYKKFIATF ?
6.09

* * *

# Tested on: HLA-A*02:06
# Experiment summary: IEDB peptide-MHC binding, purified MHC/competitive/fluorescence; filed as Kd, often an IC50 or EC50 that approximates it; bounds were set here for any values at or beyond the usual limits of such assays
# Experimental parameters: source organism: Mycobacterium leprae
Measured property: Kd

What Kd value was documented for this sequence, TVGYMYIMK ?
≥ 20 µM

* * *

# Tested on: HLA-A*02:03
# Experiment summary: IEDB peptide-MHC binding, purified MHC/direct/fluorescence; filed as Kd, often an IC50 or EC50 that approximates it; bounds were set here for any values at or beyond the usual limits of such assays
# Experimental parameters: source organism: Lyssavirus rabies
pKd: −log10 of the molar value.
Measured property: pKd

What pKd value was documented for this sequence, YLDNVGVHI ?
≤ 4.70

* * *

# Tested on: HLA-A*26:01
# Experiment summary: IEDB peptide-MHC binding, purified MHC/competitive/fluorescence; filed as Kd, often an IC50 or EC50 that approximates it; bounds were set here for any values at or beyond the usual limits of such assays
# Experimental parameters: source organism: Rickettsia felis URRWXCal2
Measured property: Kd

Request body: readout Kd, system HLA-A*26:01, query QYLFSLTYV . Return the value.
≥ 20 µM

* * *

# Tested on: HLA-B*15:01
# Experiment summary: IEDB peptide-MHC binding, purified MHC/competitive/fluorescence; filed as Kd, often an IC50 or EC50 that approximates it; bounds were set here for any values at or beyond the usual limits of such assays
# Experimental parameters: source organism: Vibrio cholerae 2740-80
Measured property: Kd

What Kd value was documented for this sequence, IFIRTIYYH ?
≥ 20 µM

* * *

# Tested on: HLA-B*40:01
# Experiment summary: IEDB peptide-MHC binding, purified MHC/competitive/radioactivity; filed as Kd, often an IC50 or EC50 that approximates it; bounds were set here for any values at or beyond the usual limits of such assays
# Experimental parameters: source organism: Mammarenavirus lassaense
Measured property: Kd (µM)
Expressed in µM, but write only the number.

What Kd value was documented for this sequence, SEAQMSIQL ?
11.6

What Kd value was documented for this sequence, YDFNKLTAL ?
5.34

What Kd value was documented for this sequence, FESYVRPFVA ?
5.42

* * *

# Tested on: HLA-A*11:01
# Experiment summary: IEDB peptide-MHC binding, purified MHC/direct/fluorescence; filed as Kd, often an IC50 or EC50 that approximates it; bounds were set here for any values at or beyond the usual limits of such assays
# Experimental parameters: source organism: SARS-CoV1
Measured property: Kd

What Kd value was documented for this sequence, TTTLEETKF ?
≥ 109 µM

* * *

# Tested on: HLA-B*35:01
# Experiment summary: IEDB peptide-MHC binding, purified MHC/direct/fluorescence; filed as Kd, often an IC50 or EC50 that approximates it; bounds were set here for any values at or beyond the usual limits of such assays
# Experimental parameters: source organism: Rickettsia prowazekii
Measured property: Kd

Request body: readout Kd, system HLA-B*35:01, query QFAGGSFDF . Return the value.
14.1 nM
